This listing pairs molecules with measured CC50 at 48 h.
Assay: Cytotoxicity against human FHC cells assessed as reduction in cell viability incubated for 48 hrs by AlamarBlue-based assay
Assay type: toxicity
# value in µM; strip the unit string

1. O=C(/C=C/c1ccccc1)c1ccc(NC(=O)c2ccccc2)cc1	73

Query COc1ccc(C(=O)/C=C/c2ccccc2)cc1 yields CC50 at 48 h of 62

====

Experiment: Inhibition of Escherichia coli GroEL expressed in NEB-5-alpha Escherichia coli cells/Escherichia coli GroES expressed in Escherichia coli BL21(DE3) cells assessed as inhibition of GroEL/ES-mediated dRho refolding by reporter analysis
Reported IC50 values for a set of compounds
The reply should be a number in µM, with the unit left off.

Below are worked cases with known answers.
1) O=C(/C=C/c1ccccc1)c1ccc(NC(=O)c2ccccc2)cc1	27
2) CC(=O)Nc1ccc(C(=O)/C=C/c2cccc([N+](=O)[O-])c2)cc1	7
3) O=C(/C=C/c1ccc(O)cc1)c1ccccc1 [4-HYDROXYCHALCONE]	39
4) Nc1ccc(C(=O)/C=C/c2ccccc2)cc1	135
5) O=C(/C=C/c1cccc([N+](=O)[O-])c1)c1ccc(NC(=O)c2cccs2)cc1	1.5

Looking up O=C(/C=C/c1ccccc1)c1ccccc1 , I found its IC50 recorded as 27

Item: COc1ccc(C(=O)/C=C/c2ccccc2)cc1 | IC50: 34

IC50 reading for O=C(/C=C/c1ccccc1)c1ccc(O)cc1 [4'-HYDROXYCHALCONE] : 61

IC50 reading for CC(=O)Nc1ccc(C(=O)/C=C/c2ccco2)cc1 : 67

Entry under test: O=C(/C=C/c1cccc([N+](=O)[O-])c1)c1ccc(NC(=O)c2ccccc2)cc1 . Its IC50 was 3.1
